Give folding enthalpy for every item shown.
assay: folding enthalpy; higher = less favourable; fluorescence melt of hairpins on a sequencing array, two-state fit; details: sodium 0.088 M
Answers are plain numbers, in kcal/mol.

Please report folding enthalpy for every entry that follows.
1. GGGCAAGGAAACTCGCCC ((((.((....)).))))
2. GATCGGAATGCCGATC ((((((....))))))
3. CACGAGAAATCGTG (((((....)))))
4. GCTTGGCGAAAGCTCAGC (((..((....))..)))
5. GTTTGTCGAAAGACGAAC (((.(((....))).)))

Response given:
[-31.1, -33.7, -23.5, -15.2, -39]

Please report folding enthalpy for every entry that follows.
1. GGCAGTGGAAACACTGTC (.(((((....))))).)
2. GATCAGACGTCTGATC ((((((....))))))
3. GTCATGGGAAACCATGGC (.(((((....))))).)

Response given:
1: -30.2; 2: -60.5; 3: -24.1

----------
experiment: folding enthalpy; higher = less favourable; fluorescence melt of hairpins on a sequencing array, two-state fit; settings: sodium 0.088 M
Measure: folding enthalpy
Remember to put the unit after the number in your answer.

Please report folding enthalpy for every entry that follows.
1. GGTGTCGAAAGACCAACC ((((((....)))..)))
2. GGACCGGGAAACCGATCC (((.(((....))).)))
3. GCTACGCGAAAGCAGAGC (((..((....))..)))

Response given:
1. -15.3 kcal/mol
2. -35.7 kcal/mol
3. -18.7 kcal/mol

Please report folding enthalpy for every entry that follows.
1. GCGCCTCGAAAGAGCCGC (((.(((....))).)))
2. GGCTGGGGAAACTCGGCC (((.(.(....).).)))
3. GTGAGTTCGAAAGAACAC (((..(((....))))))

Response given:
["-37.9 kcal/mol", "-36.5 kcal/mol", "-15.4 kcal/mol"]

Please report folding enthalpy for every entry that follows.
1. GATCAAATCATTGATC ((((((....))))))
2. GGGCTACGAAAGTACCC (((.(((....))))))

Response given:
1: -32.8 kcal/mol; 2: -34.9 kcal/mol

----------
test: melting temperature; fluorescence melt of hairpins on a sequencing array, two-state fit, raised by 9.35 °C to match UV melts; conditions: sodium 0.088 M
Label 1 when Tm >= 50 °C; otherwise -1.

>>> df
                          sequence_input  assigned_category
0  GAACACGGAAACATGTTC (((((.(....).)))))                 -1
1  GCGGCCGAAAGGCCTCGC ((((((....)))..)))                  1
2  GGCGAACCGAAAGGTGCC (((..(((....))))))                  1
3  GTCCACGGAAACGTGAAC ((.((((....)))).))                 -1
4  GCAATGCGAAAGCCATGC (((..((....))..)))                 -1

Challenge: Please indicate if the recorded Tm for GATCCTTTAAAGGATC ((((((....)))))) meets or exceeds 50 °C.
Response given: 1

Challenge: Please indicate if the recorded Tm for GACAAGACGAAAGTCGTC (((..(((....)))))) meets or exceeds 50 °C.
Response given: -1

Challenge: Please indicate if the recorded Tm for GGAGGCCGAAAGGCTTCC (((.(((....))).))) meets or exceeds 50 °C.
Response given: 1
